- Test system: RET (human), P07949 [V804M]
- Sequence (P07949 whole entry V804M, looked up): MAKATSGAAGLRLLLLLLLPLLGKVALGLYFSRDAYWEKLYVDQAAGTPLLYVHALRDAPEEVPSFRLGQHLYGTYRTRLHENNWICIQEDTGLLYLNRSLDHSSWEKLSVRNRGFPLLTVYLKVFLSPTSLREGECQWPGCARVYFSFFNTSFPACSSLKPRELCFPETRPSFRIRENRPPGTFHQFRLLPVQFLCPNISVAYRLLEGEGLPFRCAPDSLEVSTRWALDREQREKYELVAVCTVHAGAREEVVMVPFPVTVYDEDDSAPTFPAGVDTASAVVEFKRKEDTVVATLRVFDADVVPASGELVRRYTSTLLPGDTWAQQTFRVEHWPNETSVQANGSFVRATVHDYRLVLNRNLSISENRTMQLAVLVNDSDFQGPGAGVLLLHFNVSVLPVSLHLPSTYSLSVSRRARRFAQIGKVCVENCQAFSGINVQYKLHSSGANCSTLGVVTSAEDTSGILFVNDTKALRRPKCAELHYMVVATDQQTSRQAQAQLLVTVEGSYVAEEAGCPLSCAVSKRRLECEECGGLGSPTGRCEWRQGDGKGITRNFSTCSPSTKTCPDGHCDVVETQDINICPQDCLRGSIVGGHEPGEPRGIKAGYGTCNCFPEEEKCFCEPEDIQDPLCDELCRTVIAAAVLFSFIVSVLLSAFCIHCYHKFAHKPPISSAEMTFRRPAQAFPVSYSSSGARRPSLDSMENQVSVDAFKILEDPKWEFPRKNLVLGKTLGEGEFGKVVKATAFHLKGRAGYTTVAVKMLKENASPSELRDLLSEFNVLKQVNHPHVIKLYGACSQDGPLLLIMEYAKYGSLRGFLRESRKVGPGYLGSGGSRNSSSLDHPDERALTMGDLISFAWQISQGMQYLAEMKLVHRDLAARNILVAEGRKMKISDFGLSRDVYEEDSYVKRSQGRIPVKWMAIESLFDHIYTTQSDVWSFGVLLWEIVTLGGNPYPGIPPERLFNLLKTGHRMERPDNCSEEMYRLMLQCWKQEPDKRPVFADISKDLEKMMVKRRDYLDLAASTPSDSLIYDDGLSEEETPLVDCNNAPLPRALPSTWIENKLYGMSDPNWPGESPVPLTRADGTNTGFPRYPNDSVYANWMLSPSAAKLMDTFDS
- MEASUREMENT NOTES: KINOMEscan competition binding
- CONDITION INFO: compound 10.0 µM

- COMPOUND: "CCOc1cc2ncc(C#N)c(Nc3ccc(OCc4ccccn4)c(Cl)c3)c2cc1NC(=O)/C=C/CN(C)C"
  TGT: "RET (human), P07949 [V804M]"
  kinase still bound, per cent of control (%): 91
- COMPOUND: "CC1=C(C(=O)Nc2cc3cn[nH]c3cc2F)C(c2ccc(C(F)(F)F)cc2)CC(=O)N1 (centres undefined)"
  TGT: "RET (human), P07949 [V804M]"
  kinase still bound, per cent of control (%): 43
- COMPOUND: "COc1cc(N2CCN(C)CC2)ccc1Nc1nc(N)c(C(=O)c2c(Cl)cccc2Cl)s1"
  TGT: "RET (human), P07949 [V804M]"
  kinase still bound, per cent of control (%): 100
- COMPOUND: "CCN1CCN(Cc2ccc(NC(=O)c3ccc(C)c(/C=C/c4cnc5[nH]ccc5c4OC)c3)cc2C(F)(F)F)CC1"
  TGT: "RET (human), P07949 [V804M]"
  kinase still bound, per cent of control (%): 0
- COMPOUND: "CN(C)C/C=C/C(=O)Nc1ccc(C(=O)Nc2cccc(Nc3nccc(-c4cccnc4)n3)c2)cc1"
  TGT: "RET (human), P07949 [V804M]"
  kinase still bound, per cent of control (%): 74
- COMPOUND: "O=C(O)c1ccc(Nc2ncc3c(n2)-c2ccc(Cl)cc2C(c2c(F)cccc2F)=NC3)cc1"
  TGT: "RET (human), P07949 [V804M]"
  kinase still bound, per cent of control (%): 89
- COMPOUND: "CCN1CCN(C(=O)Cc2ccc(Nc3ncc(F)c(Nc4ccc(C(=O)Nc5ccccc5Cl)cc4)n3)cc2)CC1"
  TGT: "RET (human), P07949 [V804M]"
  kinase still bound, per cent of control (%): 4.6
- COMPOUND: "C=CC(=O)Nc1cccc(Oc2nc(Nc3ccc(N4CCN(C)CC4)cc3OC)ncc2Cl)c1"
  TGT: "RET (human), P07949 [V804M]"
  kinase still bound, per cent of control (%): 100
- COMPOUND: "CNC(=O)c1cc(Oc2ccc(NC(=O)Nc3ccc(Cl)c(C(F)(F)F)c3)cc2)ccn1"
  TGT: "RET (human), P07949 [V804M]"
  kinase still bound, per cent of control (%): 0
- COMPOUND: "N#C/C(=C1/Nc2ccccc2S1)c1ccnc(NCCc2cccnc2)n1"
  TGT: "RET (human), P07949 [V804M]"
  kinase still bound, per cent of control (%): 88
- COMPOUND: "CN(C)C/C=C/C(=O)Nc1cccc(Nc2ncc3c(n2)N(C)c2ccccc2C(=O)N3C)c1"
  TGT: "RET (human), P07949 [V804M]"
  kinase still bound, per cent of control (%): 0.15
- COMPOUND: "CCN(CC)CCCCNc1ncc2c(n1)N(C)C(=O)N(c1c(Cl)c(OC)cc(OC)c1Cl)C2"
  TGT: "RET (human), P07949 [V804M]"
  kinase still bound, per cent of control (%): 100
- COMPOUND: "O=C1NC(=O)/C(=C/c2ccc3nccc(-c4ccncc4)c3c2)S1"
  TGT: "RET (human), P07949 [V804M]"
  kinase still bound, per cent of control (%): 96
- COMPOUND: "N#Cc1c(NC(=O)c2cccc3ccccc23)sc2c1CCCC2"
  TGT: "RET (human), P07949 [V804M]"
  kinase still bound, per cent of control (%): 92
- COMPOUND: "COc1cc2ncn(-c3cc(OCc4ccccc4C(F)(F)F)c(C(N)=O)s3)c2cc1OC"
  TGT: "RET (human), P07949 [V804M]"
  kinase still bound, per cent of control (%): 62
- COMPOUND: "COc1cc2ncnc(-n3nc(-c4ccccn4)nc3N)c2cc1OC"
  TGT: "RET (human), P07949 [V804M]"
  kinase still bound, per cent of control (%): 66
- COMPOUND: "CC[C@@H]1C(=O)N(C)c2cnc(Nc3ccc(C(=O)NC4CCN(C)CC4)cc3OC)nc2N1C1CCCC1"
  TGT: "RET (human), P07949 [V804M]"
  kinase still bound, per cent of control (%): 100
- COMPOUND: "O=c1cc(N2CCOCC2)oc2c(-c3cccc4c3sc3ccccc34)cccc12"
  TGT: "RET (human), P07949 [V804M]"
  kinase still bound, per cent of control (%): 95
- COMPOUND: "CCCS(=O)(=O)Nc1ccc(F)c(C(=O)c2c[nH]c3ncc(Cl)cc23)c1F"
  TGT: "RET (human), P07949 [V804M]"
  kinase still bound, per cent of control (%): 89

---

Each item that follows carries a reported kinase still bound, per cent of control.
- TGT: NLK (human)
- MEASUREMENT NOTES: KINOMEscan competition binding
- CONDITION INFO: compound 10.0 µM

- ITEM SMILES: "O=C1NC(=O)/C(=C/c2ccc3nccc(-c4ccncc4)c3c2)S1"
  TGT: "NLK (human)"
  kinase still bound, per cent of control (%): 84
- ITEM SMILES: "C[C@@H](Oc1cc(-c2cnn(C3CCNCC3)c2)cnc1N)c1c(Cl)ccc(F)c1Cl"
  TGT: "NLK (human)"
  kinase still bound, per cent of control (%): 93
- ITEM SMILES: "CNC(=O)c1cc(Oc2ccc(NC(=O)Nc3ccc(Cl)c(C(F)(F)F)c3)cc2)ccn1"
  TGT: "NLK (human)"
  kinase still bound, per cent of control (%): 32
- ITEM SMILES: "CNC(=O)c1ccc(Nc2cc(Nc3ccccc3S(=O)(=O)C(C)C)c3cc[nH]c3n2)nc1"
  TGT: "NLK (human)"
  kinase still bound, per cent of control (%): 100
- ITEM SMILES: "COc1cc(C(=O)N2CCC(N3CCN(C)CC3)CC2)ccc1Nc1ncc2c(n1)N(C)c1ccccc1C(=O)N2C"
  TGT: "NLK (human)"
  kinase still bound, per cent of control (%): 50
- ITEM SMILES: "COCC(=O)NC/C=C/c1ccc2ncnc(Nc3ccc(Oc4ccc(C)nc4)c(C)c3)c2c1"
  TGT: "NLK (human)"
  kinase still bound, per cent of control (%): 100
- ITEM SMILES: "Cc1n[nH]c2ccc(-c3cncc(OC[C@@H](N)Cc4c[nH]c5ccccc45)c3)cc12"
  TGT: "NLK (human)"
  kinase still bound, per cent of control (%): 100
- ITEM SMILES: "CCN1CCN(C(=O)Cc2ccc(Nc3ncc(F)c(Nc4ccc(C(=O)Nc5ccccc5Cl)cc4)n3)cc2)CC1"
  TGT: "NLK (human)"
  kinase still bound, per cent of control (%): 98
- ITEM SMILES: "C=CC(=O)Nc1ccc(CN(C(=O)Nc2c(Cl)c(OC)cc(OC)c2Cl)c2cc(Nc3ccc(N4CCN(C)CC4)cc3)ncn2)cc1"
  TGT: "NLK (human)"
  kinase still bound, per cent of control (%): 100

---

- TGT: DCLK1 (human) (UniProt O15075)
- Sequence (O15075 whole entry, looked up): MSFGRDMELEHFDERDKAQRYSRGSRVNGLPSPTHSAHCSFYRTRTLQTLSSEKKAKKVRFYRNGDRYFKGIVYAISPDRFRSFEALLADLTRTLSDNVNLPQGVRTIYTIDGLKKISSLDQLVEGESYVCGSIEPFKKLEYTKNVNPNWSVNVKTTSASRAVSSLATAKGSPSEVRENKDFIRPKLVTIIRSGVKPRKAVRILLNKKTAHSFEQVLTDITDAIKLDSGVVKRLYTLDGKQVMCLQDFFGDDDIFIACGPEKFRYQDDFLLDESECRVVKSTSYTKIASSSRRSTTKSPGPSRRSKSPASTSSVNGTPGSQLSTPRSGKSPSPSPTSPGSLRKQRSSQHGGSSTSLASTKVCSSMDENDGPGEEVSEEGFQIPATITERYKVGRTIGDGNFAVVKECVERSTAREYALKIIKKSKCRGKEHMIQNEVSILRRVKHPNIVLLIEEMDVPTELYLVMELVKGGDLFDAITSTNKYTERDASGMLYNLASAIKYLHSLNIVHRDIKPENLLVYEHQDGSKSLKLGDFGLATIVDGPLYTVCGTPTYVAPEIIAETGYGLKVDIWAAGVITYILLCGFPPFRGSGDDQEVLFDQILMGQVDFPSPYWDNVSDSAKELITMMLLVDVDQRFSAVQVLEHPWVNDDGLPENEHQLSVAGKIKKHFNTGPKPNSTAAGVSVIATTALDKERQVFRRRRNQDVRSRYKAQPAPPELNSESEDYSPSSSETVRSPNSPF
- MEASUREMENT NOTES: KINOMEscan competition binding
- CONDITION INFO: compound 10.0 µM
MEASURE: kinase still bound, per cent of control (%)

- ITEM SMILES: "COc1cc(C(=O)N2CCC(N3CCN(C)CC3)CC2)ccc1Nc1ncc2c(n1)N(C)c1ccccc1C(=O)N2C"
  RESULT NUMBER: 4.2
- ITEM SMILES: "COc1cc2ncnc(-n3nc(-c4ccccn4)nc3N)c2cc1OC"
  RESULT NUMBER: 36
- ITEM SMILES: "CNC(=O)c1cc(Oc2ccc(NC(=O)Nc3ccc(Cl)c(C(F)(F)F)c3)cc2)ccn1"
  RESULT NUMBER: 98
- ITEM SMILES: "C=CC(=O)Nc1ccc(CN(C(=O)Nc2c(Cl)c(OC)cc(OC)c2Cl)c2cc(Nc3ccc(N4CCN(C)CC4)cc3)ncn2)cc1"
  RESULT NUMBER: 100
- ITEM SMILES: "N#CCNC(=O)c1ccc(-c2ccnc(Nc3ccc(N4CCOCC4)cc3)n2)cc1"
  RESULT NUMBER: 52
- ITEM SMILES: "CN(C)C/C=C/C(=O)Nc1ccc(C(=O)Nc2cccc(Nc3nccc(-c4cccnc4)n3)c2)cc1"
  RESULT NUMBER: 98
- ITEM SMILES: "COc1cc2ncn(-c3cc(OCc4ccccc4C(F)(F)F)c(C(N)=O)s3)c2cc1OC"
  RESULT NUMBER: 49
- ITEM SMILES: "Cc1n[nH]c2ccc(-c3cncc(OC[C@@H](N)Cc4c[nH]c5ccccc45)c3)cc12"
  RESULT NUMBER: 100
- ITEM SMILES: "CCN(CC)CCCCNc1ncc2cc(-c3cc(OC)cc(OC)c3)c(NC(=O)NC(C)(C)C)nc2n1"
  RESULT NUMBER: 100

Origin of measurements: the kinase profiling compilation of Christmann-Franck et al. (2016)
